measurementNotes: Parallel artificial membrane permeability assay (Egg-PAMPA)
Type: in vitro ADME
assayConditions: PAMPA, incubation 4 h, read-out: Permeability
experimentalEndpoint: Papp at 4 h, 10 μM

{"testSmiles": "COc1ncc(-c2cc(C)cn3cc(C(=O)N4CCCC4)nc23)cc1NS(=O)(=O)c1ccc(F)cc1", "result": "> 1 ×10⁻⁶ cm/s"}

* * *

measurementNotes: Liver microsomal stability assay, HLM
Format: in vitro ADME, human
assayConditions: human, human liver microsomes, pH 7.4, 0.5 mg protein/mL, read-out: Metabolic stability CL int
experimentalEndpoint: microsomal CLint at 1 μM (µL/min/mg)

{"testSmiles": "COc1ncc(-c2cc(C)cn3cc(C(=O)N4CCCC4)nc23)cc1NS(=O)(=O)c1ccc(F)cc1", "recordedNumber": 30.7}

* * *

measurementNotes: Parallel artificial membrane permeability assay (Egg-PAMPA)
Format: in vitro ADME
assayConditions: PAMPA, incubation 4 h, read-out: Mean Pe
experimentalEndpoint: Papp at 4 h, 10 μM (×10⁻⁶ cm/s)

{"testSmiles": "COc1ncc(-c2cc(C)cn3cc(C(=O)N4CCCC4)nc23)cc1NS(=O)(=O)c1ccc(F)cc1", "experimentalEndpoint": "Papp at 4 h, 10 μM", "unitsSymbol": "×10⁻⁶ cm/s", "recordedNumber": 1.54}

* * *

system: PI3Kα (Homo sapiens)
Construct: purchased Invitrogen
measurementNotes: In vitro PI3Kα enzymatic assay (ADP-Glo / Kinase-Glo, ATP 25 μM)
Assay type: biochemical
assayConditions: PI3Kα, compound 10 μM, ATP 25 μM; mean ± SD of three determinations; read-out: % Inhibition at 10 μM
Procedure: To screen the inhibitory activity of the target compounds against PI3Kα, the Kinase-Glo™ assay with ATP at 25 μM was utilised with PIK-75 as positive control. We chose to explore the SARs at three positions on the Imidazo[1,2-a]pyridine core. […] Briefly, the compound, PI3K enzyme (PI3Kα from Invitrogen), the PIP2 (Life Technologies) substrate, and ATP (25 μM, Sigma) were diluted in kinase buffer to the indicated concentrations. […] IC50 values were calculated from the inhibition curves.
experimentalEndpoint: inhibition at 10 µM

{"compound": "Cc1cc(-c2ccc(F)cc2)c2nc(C(=O)N3CCOCC3)cn2c1 [Compound 15]", "experimentalEndpoint": "inhibition at 10 µM", "result": "31.9%"}
{"compound": "COc1ncc(-c2cc(C)cn3cc(C(=O)N4CCCC4)nc23)cc1NS(=O)(=O)c1ccc(F)cc1 [Compound 35]", "experimentalEndpoint": "inhibition at 10 µM", "result": "> 85%"}
{"compound": "COc1ccc(-c2cc(C)cn3cc(C(=O)N4CCCC4)nc23)cn1 [Compound 25]", "experimentalEndpoint": "inhibition at 10 µM", "result": "44.3%"}
{"compound": "COc1ccc(-c2cc(C)cn3cc(C(=O)N4CCOCC4)nc23)cn1 [Compound 21]", "experimentalEndpoint": "inhibition at 10 µM", "result": "39.9%"}
{"compound": "COc1ncc(-c2cc(C)cn3cc(C(=O)N4CCN(C)CC4)nc23)cc1NS(=O)(=O)c1ccc(F)cc1 [Compound 44]", "experimentalEndpoint": "inhibition at 10 µM", "result": "53.4%"}
{"compound": "COc1ncc(-c2cc(C)cn3cc(C(=O)N4CCOCC4)nc23)cc1NS(=O)(=O)c1ccc(F)cc1F [Compound 37]", "experimentalEndpoint": "inhibition at 10 µM", "result": "67.5%"}
{"compound": "COc1ncc(-c2cc(C)cn3cc(C(=O)N4CCCC4)nc23)cc1NS(=O)(=O)c1ccccc1 [Compound 34]", "experimentalEndpoint": "inhibition at 10 µM", "result": "49.8%"}
{"compound": "Cc1cc(-c2cccnc2)c2nc(C(=O)N3CCCC3)cn2c1 [Compound 24]", "experimentalEndpoint": "inhibition at 10 µM", "result": "29.6%"}

* * *

Attribute: inhibition at 10 µM
system: PI3Kα (Homo sapiens, UniProt P42336)
Construct: purchased Invitrogen
Sequence (P42336 whole entry): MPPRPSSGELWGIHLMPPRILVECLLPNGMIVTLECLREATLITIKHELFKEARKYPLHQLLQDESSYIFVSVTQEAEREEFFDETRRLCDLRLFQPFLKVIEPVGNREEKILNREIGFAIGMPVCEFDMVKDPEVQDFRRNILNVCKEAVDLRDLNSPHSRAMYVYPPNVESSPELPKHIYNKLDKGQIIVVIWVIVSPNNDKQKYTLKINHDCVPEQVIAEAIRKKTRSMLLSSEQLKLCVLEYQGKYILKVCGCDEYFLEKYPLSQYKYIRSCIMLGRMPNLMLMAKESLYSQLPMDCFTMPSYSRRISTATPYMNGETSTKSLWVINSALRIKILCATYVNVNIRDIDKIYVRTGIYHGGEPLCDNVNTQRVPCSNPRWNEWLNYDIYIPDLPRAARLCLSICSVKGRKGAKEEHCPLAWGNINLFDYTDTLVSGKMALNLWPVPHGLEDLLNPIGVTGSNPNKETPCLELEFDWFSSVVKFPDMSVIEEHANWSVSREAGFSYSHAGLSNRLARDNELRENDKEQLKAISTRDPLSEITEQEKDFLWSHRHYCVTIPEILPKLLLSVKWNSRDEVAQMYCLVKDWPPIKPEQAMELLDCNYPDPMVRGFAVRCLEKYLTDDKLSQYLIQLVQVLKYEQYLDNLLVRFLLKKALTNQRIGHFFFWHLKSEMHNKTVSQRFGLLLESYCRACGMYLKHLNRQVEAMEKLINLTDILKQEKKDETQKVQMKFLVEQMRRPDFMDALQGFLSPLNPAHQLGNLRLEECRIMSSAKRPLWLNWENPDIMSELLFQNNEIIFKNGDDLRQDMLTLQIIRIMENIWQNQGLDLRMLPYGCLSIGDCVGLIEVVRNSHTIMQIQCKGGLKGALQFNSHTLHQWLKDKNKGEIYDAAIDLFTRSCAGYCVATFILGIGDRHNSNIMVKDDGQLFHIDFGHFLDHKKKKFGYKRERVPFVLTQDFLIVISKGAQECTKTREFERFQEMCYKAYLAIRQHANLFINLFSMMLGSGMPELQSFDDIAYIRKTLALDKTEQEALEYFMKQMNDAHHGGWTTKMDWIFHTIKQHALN
Sequence (P27986 whole entry partner): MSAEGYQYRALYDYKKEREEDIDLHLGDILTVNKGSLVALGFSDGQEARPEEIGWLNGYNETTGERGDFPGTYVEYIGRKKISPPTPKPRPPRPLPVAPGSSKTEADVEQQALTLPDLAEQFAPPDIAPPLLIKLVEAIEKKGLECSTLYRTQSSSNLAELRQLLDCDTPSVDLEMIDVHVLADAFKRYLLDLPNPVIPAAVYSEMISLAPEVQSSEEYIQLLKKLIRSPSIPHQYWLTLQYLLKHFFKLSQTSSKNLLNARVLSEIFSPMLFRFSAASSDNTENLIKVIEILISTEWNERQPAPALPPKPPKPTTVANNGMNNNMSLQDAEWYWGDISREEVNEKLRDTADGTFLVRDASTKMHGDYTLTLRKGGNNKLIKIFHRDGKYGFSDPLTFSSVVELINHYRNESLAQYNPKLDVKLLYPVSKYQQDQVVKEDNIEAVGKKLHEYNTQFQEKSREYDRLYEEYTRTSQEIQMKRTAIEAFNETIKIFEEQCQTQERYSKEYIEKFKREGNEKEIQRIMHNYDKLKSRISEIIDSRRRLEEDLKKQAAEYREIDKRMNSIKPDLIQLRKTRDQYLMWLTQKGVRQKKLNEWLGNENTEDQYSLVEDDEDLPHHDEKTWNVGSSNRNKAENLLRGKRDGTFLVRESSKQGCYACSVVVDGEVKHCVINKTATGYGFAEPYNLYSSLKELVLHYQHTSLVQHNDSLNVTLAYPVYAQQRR
measurementNotes: In vitro PI3Kα enzymatic assay (ADP-Glo / Kinase-Glo, ATP 25 μM)
Type: biochemical
assayConditions: PI3Kα, compound 10 μM, ATP 25 μM; mean ± SD of three determinations; read-out: % Inhibition at 10 μM

{"testSmiles": "COc1ncc(-c2cccn3cc(C(=O)N4CCC(C)CC4)nc23)cc1NS(=O)(=O)c1ccc(F)cc1", "inhibition at 10 µM": "40.2%"}
{"testSmiles": "COc1ncc(-c2cc(C)cn3cc(C(=O)N4CCC(C)CC4)nc23)cc1NS(=O)(=O)c1ccc(F)cc1", "inhibition at 10 µM": "62.8%"}
{"testSmiles": "Cc1cc(-c2ccc(NC(=O)c3cccc(F)c3)cc2)c2nc(C(=O)N3CCCC3)cn2c1", "inhibition at 10 µM": "57.9%"}
{"testSmiles": "Cc1cc(-c2cccnc2)c2nc(C(=O)N3CCC(C)CC3)cn2c1", "inhibition at 10 µM": "28.5%"}
{"testSmiles": "COc1ncc(-c2cc(C)cn3cc(C(=O)NCCCN4CCOCC4)nc23)cc1NS(=O)(=O)c1ccc(F)cc1", "inhibition at 10 µM": "75.7%"}
{"testSmiles": "Cc1cc(-c2ccccc2F)c2nc(C(=O)N3CCOCC3)cn2c1", "inhibition at 10 µM": "14.1%"}
{"testSmiles": "Cc1cc(-c2cccnc2)c2nc(C(=O)N3CCOCC3)cn2c1", "inhibition at 10 µM": "30.2%"}
{"testSmiles": "COc1ncc(-c2cc(C)cn3cc(C(=O)NCCN4CCOCC4)nc23)cc1NS(=O)(=O)c1ccc(F)cc1", "inhibition at 10 µM": "> 85%"}
{"testSmiles": "Cc1cc(-c2ccc(F)cc2)c2nc(C(=O)N3CCCC3)cn2c1", "inhibition at 10 µM": "33.3%"}
{"testSmiles": "Cc1cc(-c2ccncc2)c2nc(C(=O)N3CCC(C)CC3)cn2c1", "inhibition at 10 µM": "9.3%"}
{"testSmiles": "Cc1cc(-c2ccc(NC(=O)c3cccc(F)c3)cc2)c2nc(C(=O)N3CCOCC3)cn2c1", "inhibition at 10 µM": "47.6%"}
{"testSmiles": "COc1ncc(-c2cc(C)cn3cc(C(=O)NCCN4CCOCC4)nc23)cc1NS(=O)(=O)c1ccc(F)cc1F", "inhibition at 10 µM": "81.6%"}
{"testSmiles": "Cc1cc(-c2cccc(F)c2)c2nc(C(=O)N3CCOCC3)cn2c1", "inhibition at 10 µM": "38.2%"}
{"testSmiles": "Cc1cc(-c2cccc(F)c2)c2nc(C(=O)N3CCC(C)CC3)cn2c1", "inhibition at 10 µM": "30.4%"}
{"testSmiles": "Cc1cc(-c2cccc(F)c2)c2nc(C(=O)N3CCCC3)cn2c1", "inhibition at 10 µM": "43.9%"}
{"testSmiles": "COc1ncc(-c2cc(C)cn3cc(C(=O)NCCCN4CCOCC4)nc23)cc1NS(=O)(=O)c1ccc(F)cc1F", "inhibition at 10 µM": "70.2%"}
{"testSmiles": "CCN(CC)S(=O)(=O)c1cccc(-c2cc(C)cn3cc(C(=O)N4CCCC4)nc23)c1", "inhibition at 10 µM": "66.1%"}
{"testSmiles": "COc1ncc(-c2cc(C)cn3cc(C(=O)N4CCCC4)nc23)cc1NS(=O)(=O)c1ccc(F)cc1F", "inhibition at 10 µM": "> 85%"}
{"testSmiles": "COc1ncc(-c2cc(C)cn3cc(C(=O)N4CCOCC4)nc23)cc1NS(=O)(=O)c1ccc(F)cc1", "inhibition at 10 µM": "69.2%"}
{"testSmiles": "COc1ncc(-c2cc(Cl)cn3cc(C(=O)NCCCN4CCOCC4)nc23)cc1NS(=O)(=O)c1ccc(F)cc1F", "inhibition at 10 µM": "59.8%"}

* * *

pIC50: −log10 of the molar value.
Entries below carry reported pIC50 on PI3Kα (Homo sapiens).

{"testSmiles": "COc1ncc(-c2cc(C)cn3cc(C(=O)N4CCCC4)nc23)cc1NS(=O)(=O)c1ccc(F)cc1", "pIC50": 6.82}
{"testSmiles": "COc1ncc(-c2cc(C)cn3cc(C(=O)NCCN4CCOCC4)nc23)cc1NS(=O)(=O)c1ccc(F)cc1", "pIC50": 6.30}
{"testSmiles": "COc1ncc(-c2cc(C)cn3cc(C(=O)N4CCCC4)nc23)cc1NS(=O)(=O)c1ccc(F)cc1F", "pIC50": 5.95}

* * *

measurementNotes: Liver microsomal stability assay, RLM
Format: in vitro ADME, rat
assayConditions: SD, rat, rat liver microsomes, pH 7.4, 0.5 mg protein/mL, read-out: Metabolic stability CL int
Experimental: The metabolic stability of compound 35 was determined in human or SD rat liver microsomes, with and without the NADPH regenerating system. Briefly, compound 35 was incubated with microsomes (human microsome, CORNING, lot No. 38296; rat microsome, Xenotech, Lot No. 2110178) (0.5 mg protein/mL) at 1 μM at 37 °C in potassium phosphate buffer (100 mM at pH 7.4 with 10 mM MgCl2). The reactions were initiated by adding prewarmed cofactors (1 mmol NADPH). […]

{"compound": "COc1ncc(-c2cc(C)cn3cc(C(=O)N4CCCC4)nc23)cc1NS(=O)(=O)c1ccc(F)cc1 [Compound 35]", "microsomal CLint at 1 μM [µL/min/mg]": 43.4}

Data credit: paper PMC9858543
